# method_description: Intrinsic clearance in mouse liver microsomes
# Assay type: ADME, Microsome
# details: read-out: CLH
measured_property: microsomal CLint

Please give the measured microsomal CLint for this compound: NC(=O)CN1CCN(Cc2nc(-c3cn(CC4CCOCC4)c4c(Cl)cccc34)no2)CC1
< 12 µL/min/mg

----------
# method_description: Intrinsic clearance in rat liver microsomes
# Type: ADME, Microsome
# details: read-out: CLH
Would you mind telling me the reported microsomal CLint of each entry?
Numbers only, in µL/min/mg.

Past entries and their recorded results:
>  <input_smiles>
O=C(NCCO)C1CCN(Cc2nc(-c3cn(CC4CCOCC4)c4c(Cl)cccc34)ns2)CC1

>  <microsomal CLint (µL/min/mg)>
49

$$$$
>  <input_smiles>
NC(=O)CN1CCN(Cc2nc(-c3cn(CC4CCOCC4)c4c(Cl)cccc34)ns2)CC1

>  <microsomal CLint (µL/min/mg)>
23

$$$$
>  <input_smiles>
CN(CC(N)=O)Cc1nc(-c2cn(CC3CCS(=O)(=O)CC3)c3c(Cl)cccc23)no1

>  <microsomal CLint (µL/min/mg)>
33

$$$$
>  <input_smiles>
O=C(NCCO)[C@H]1CCCN(Cc2nc(-c3cn(CC4CCS(=O)(=O)CC4)c4c(Cl)cccc34)ns2)C1

>  <microsomal CLint (µL/min/mg)>
32

$$$$
>  <input_smiles>
COc1cccc2c(-c3nsc(CN4CCC(C(=O)NCCO)CC4)n3)cn(CC3CCOCC3)c12

>  <microsomal CLint (µL/min/mg)>
33

$$$$

Hey, can you go through the list below and give me microsomal CLint for every item?
1. CN(CC(N)=O)Cc1nc(-c2cn(CC3CCS(=O)(=O)CC3)c3c(Cl)cccc23)ns1
2. O=C(NCCO)C1CCN(Cc2nc(-c3cn(CC4CCOCC4)c4c(Cl)cccc34)no2)CC1

[52, 18]

List reported microsomal CLint for each of these compounds:
1. CN(CC(N)=O)Cc1nc(-c2cn(CC3CCOCC3)c3c(Cl)cccc23)no1.Cl
2. COc1cccc2c(-c3nsc(CN4CCN(CC(N)=O)CC4)n3)cn(CC3CCOCC3)c12
3. NC(=O)CN1CCN(Cc2nc(-c3cn(CC4CCS(=O)(=O)CC4)c4c(Cl)cccc34)no2)CC1
4. CN(CC(=O)NCCO)Cc1nc(-c2cn(CC3CCOCC3)c3c(Cl)cccc23)no1

1. 43
2. 17
3. 48
4. 49

All figures here come from ChEMBL document CHEMBL2016544.
